The reported measurements were obtained from ChEMBL document CHEMBL4385606.

MEASUREMENT_TARGET: Cyclin-dependent kinase 2/cyclin E1 (Homo sapiens, UniProt P24941)
ASSAY: Inhibition of His-tagged CDK2/Cyclin-E1 (unknown origin) expressed in baculovirus infected Sf9 insect cells using histone H1 as substrate measured in presence of [gamma-33P]ATP
Assay type: cell-based
EXPERIMENTAL_READOUT: pIC50
The meaning of pIC50 here: minus log10 of the concentration in molar units.

Past entries and their recorded results:
MOLECULE | pIC50
CC(C)c1n[nH]c2c(NCc3ccc(-c4ccccn4)cc3)nc(SC[C@H](O)CN)nc12 | 7.96
CC(=O)NCCSc1nc(NCc2ccc(-c3ccccn3)cc2)c2[nH]nc(C(C)C)c2n1 | 7.39
CC(C)c1n[nH]c2c(NCc3ccc(-c4ccccn4)cc3)nc(SCC(C)(C)O)nc12 | 7.52

Query: # lookup: pIC50 of CSCCSc1nc(NCc2ccc(-c3ccccn3)cc2)c2[nH]nc(C(C)C)c2n1
Result: 6.86

Query: Would you kindly repeat that for CC(C)c1n[nH]c2c(NCc3ccc(-c4ccccn4)cc3)nc(SCCO)nc12 ?
Result: 8.52

Query: Follow-up item: CC(C)c1n[nH]c2c(NCc3ccc(-c4ccccn4)cc3)nc(SCC(N)=O)nc12
Result: 7.57

Query: Subsequent entry: CC(C)c1n[nH]c2c(NCc3ccc(-c4ccccn4)cc3)nc(SCCNC(N)=O)nc12
Result: 7.74

Query: Check COCSc1nc(NCc2ccc(-c3ccccn3)cc2)c2[nH]nc(C(C)C)c2n1 too.
Result: 7.23

Query: Please do the same for CC(C)c1n[nH]c2c(NCc3ccc(-c4ccccn4)cc3)nc(SCC(O)CN3CCOCC3)nc12 (centres undefined) as well.
Result: 6.81

Query: Also check CC(C)c1n[nH]c2c(NCc3ccc(-c4ccccn4)cc3)nc(SC3CCCCC3N)nc12 (centres undefined)
Result: 7.28

Query: Another molecule to check: C=CCSc1nc(NCc2ccc(-c3ccccn3)cc2)c2[nH]nc(C(C)C)c2n1
Result: 7.00

Query: Now this one: CC(C)c1n[nH]c2c(NCc3ccc(-c4ccccn4)cc3)nc(SCCn3ccnc3)nc12
Result: 7.49

---

Listing of recorded log10(GI50) by entry.
ASSAY: Antiproliferative activity against human OCI-Ly2 cells measured after 72 hrs by calcein AM dye-based fluorescence assay
Format: functional
Friendly reminder: values = log10 of GI50, unit µM.

Look over these answered cases.
MOLECULE | log10(GI50)
CC(=O)NCCSc1nc(NCc2ccc(-c3ccccn3)cc2)c2[nH]nc(C(C)C)c2n1 | -1.27
CC(C)c1n[nH]c2c(NCc3ccc(-c4ccccn4)cc3)nc(SC(C)C(C)O)nc12 (centres undefined) | -0.85
CC(C)c1n[nH]c2c(NCc3ccc(-c4ccccn4)cc3)nc(SC3CCCCC3O)nc12 (centres undefined) | -0.17
COCSc1nc(NCc2ccc(-c3ccccn3)cc2)c2[nH]nc(C(C)C)c2n1 | -0.55
CC(C)c1n[nH]c2c(NCc3ccc(-c4ccccn4)cc3)nc(SCCO)nc12 | -1.30

Query: What value of log10(GI50) has been reported for the following molecule? C=CCSc1nc(NCc2ccc(-c3ccccn3)cc2)c2[nH]nc(C(C)C)c2n1
Result: -0.07

Query: How about this molecule: CC(C)c1n[nH]c2c(NCc3ccc(-c4ccccn4)cc3)nc(SCC(O)CN3CCOCC3)nc12 (centres undefined)
Result: -0.70

Query: Then this molecule: CC(C)c1n[nH]c2c(NCc3ccc(-c4ccccn4)cc3)nc(SC3CCCCC3N)nc12 (centres undefined)
Result: -0.87

Query: Also need CC(C)c1n[nH]c2c(NCc3ccc(-c4ccccn4)cc3)nc(SC3CCCC3O)nc12 (centres undefined) , thanks.
Result: -0.43
